Where these numbers come from: patent US20260028391A1

# TARGET SYSTEM: RSV fusion glycoprotein (RSV-F) (respiratory syncytial virus)
# PROTOCOL: SPR; F protein loaded on streptavidin sensors, mAb in solution
MEASURE: Kd

A selection of reference data follows.
{"BINDER": "MPK18 (antibody, V domains shown, VH and VL only) VH: EVQLVESGGGLVKPGGSLRLSCAASGFTISGYYMIWIRQAPGKGLEWISYISGSSSYTNFGASVKGRFTISRDNGQNTVHLQMTNLRADDTALYYCATEQTPSPGPFDLWGQGTLVTVSS VL: QSVVTQPPSVSGAPGQRVTISCSGTSSNIGAGYDVHWYQQFPGTSPKLLISRNFNRPSGVPARFSGSKSGSSASLAIAGLQAEDEADYYCQSYDRSLGGWVFGGGTKVTVL", "MEASURE": "Kd", "RESULT": "1 pM"}
{"BINDER": "MPK92 (antibody, V domains shown, VH and VL only) VH: EVQLVESGGGLVKPGGSLRLSCEASGISLSGYYMIWIRQAPGKGLEWISSISSSSNYIDYADSVRGRFTISRHNGQNTLYLQMNSLRVEDTAVYFCATEQTPSPGPFELWGQGILVTVSS VL: QSVLTQPPSVSGAPGQRVTIFCTGTTSNIGTGYDVHWYQQFPGTSPKLLIYRNTNRPSGVPDRFSGSRSGSSASLAIAGLQAEDEADYYCQSFDRSVNGWIFGGGTKVTVL", "MEASURE": "Kd", "RESULT": "98 pM"}

Now examine the next entry.
For MPK146 (antibody, V domains shown, VH and VL only) VH: QVQLVESGGGLVKPGGSLRLSCAASGFTFSGYYMIWIRQAPGKGLEWIASISGSSNYIDYADSVRGRFTISRDNARNILDLQMNSLRAGDTALYYCATEQVPSPGPFDLWGQGTLVTVSS VL: QSVLTQPPSVSGAPGQRVTISCTGSNSNLGAGYDVHWYQQFPGTSPKLLIYRNTNRPSGVPDRFAGSKSGTSASLAITGLQAEDEADYYCQSYDRSLSGWVFGGGTKLTVL , what is its reported Kd?
9.5 pM
